- System: Enterococcus faecium
- test name: Antibacterial activity against Enterococcus faecium assessed as susceptible isolates by CLSI broth microdilution method
- Format: functional
experimental endpoint: Activity (%)
Respond with the bare value in %.

The following molecules have reported results that may help.
[
  {
    "smiles repr": "CC[C@H]1OC(=O)[C@H](C)[C@@H](O[C@H]2C[C@@](C)(OC)[C@@H](O)[C@H](C)O2)[C@H](C)[C@@H](O[C@@H]2O[C@H](C)C[C@H](N(C)C)[C@H]2O)[C@](C)(O)C[C@@H](C)C(=O)[C@H](C)[C@@H](O)[C@]1(C)O",
    "assayed system": "Enterococcus faecium",
    "unit": "%",
    "Activity": 3
  },
  {
    "smiles repr": "CC(=O)NC[C@H]1CN(c2ccc(N3CCOCC3)c(F)c2)C(=O)O1",
    "assayed system": "Enterococcus faecium",
    "unit": "%",
    "Activity": 99.3
  },
  {
    "smiles repr": "CN(C)[C@@H]1C(O)=C(C(N)=O)C(=O)[C@@]2(O)C(O)=C3C(=O)c4c(O)cccc4[C@@](C)(O)[C@H]3C[C@@H]12",
    "assayed system": "Enterococcus faecium",
    "unit": "%",
    "Activity": 67.3
  },
  {
    "smiles repr": "CC1(C)S[C@@H]2[C@H](NC(=O)[C@H](N)c3ccccc3)C(=O)N2[C@H]1C(=O)O",
    "assayed system": "Enterococcus faecium",
    "unit": "%",
    "Activity": 11.9
  },
  {
    "smiles repr": "C[C@H]1COc2c(N3CCN(C)CC3)c(F)cc3c(=O)c(C(=O)O)cn1c23.C[C@H]1COc2c(N3CCN(C)CC3)c(F)cc3c(=O)c(C(=O)O)cn1c23.O",
    "assayed system": "Enterococcus faecium",
    "unit": "%",
    "Activity": 14.2
  }
]

Task item: Item `CN[C@H](CC(C)C)C(=O)N[C@H]1C(=O)N[C@@H](CC(N)=O)C(=O)N[C@H]2C(=O)N[C@H]3C(=O)N[C@H](C(=O)N[C@H](C(=O)O)c4cc(O)cc(O)c4-c4cc3ccc4O)[C@H](O)c3ccc(c(Cl)c3)Oc3cc2cc(c3O[C@@H]2O[C@H](CO)[C@@H](O)[C@H](O)[C@H]2O[C@H]2C[C@](C)(N)[C@H](O)[C@H](C)O2)Oc2ccc(cc2Cl)[C@H]1O` : provide Activity
Reply: 55.8
